Experiment: Plasma OXT concentration after intranasal OXT
Assay type: in vivo
Details: male, human, inhaled or intranasal, 24 IU, SD
Assay endpoint: level at 1.5 h
Answer format: value, then unit.

IN: Give the measured level at 1.5 h of `CC[C@H](C)[C@@H]1NC(=O)[C@H](Cc2ccc(O)cc2)NC(=O)[C@@H](N)CSSC[C@@H](C(=O)N2CCC[C@H]2C(=O)N[C@@H](CC(C)C)C(=O)NCC(N)=O)NC(=O)[C@H](CC(N)=O)NC(=O)[C@H](CCC(N)=O)NC1=O` .
OUT: 0.0123 ng/mL

====

Experiment: Plasma OXT concentration after intranasal OXT
Assay type: in vivo
Details: male, human, inhaled or intranasal, 24 IU
Assay endpoint: Tmax (min)
Hi! Could you send only the number? It should be in min, unit omitted.

IN: Give the measured Tmax of `CC[C@H](C)[C@@H]1NC(=O)[C@H](Cc2ccc(O)cc2)NC(=O)[C@@H](N)CSSC[C@@H](C(=O)N2CCC[C@H]2C(=O)N[C@@H](CC(C)C)C(=O)NCC(N)=O)NC(=O)[C@H](CC(N)=O)NC(=O)[C@H](CCC(N)=O)NC1=O` .
OUT: 15

Data origin, for the record: paper PMC3853684
